- Test system: Sporothrix schenckii
- test-name: Antifungal activity against Sporothrix schenckii assessed as lowest dose level for total inhibition of fungal growth
- Type: functional
# maps each entry to its Activity
Give the number; µg/mL is assumed, so skip it.

Some solved entries appear below for comparison.
compound	Activity [µg/mL]
Clc1ccc(CC(Cn2ccnc2)c2ccccc2Cl)cc1.O=[N+]([O-])O (stereo not drawn)	10
Clc1ccccc1C(Cc1c(Cl)cccc1Cl)Cn1ccnc1.O=[N+]([O-])O (stereo not drawn)	10
Clc1ccc(C(CCc2ccc(Br)cc2)Cn2ccnc2)c(Cl)c1.O=[N+]([O-])O (stereo not drawn)	10
Clc1ccccc1CC(Cn1ccnc1)c1ccccc1Cl.O=[N+]([O-])O (stereo not drawn)	10
Clc1ccc(CC(Cn2ccnc2)c2c(Cl)cccc2Cl)c(Cl)c1.O=[N+]([O-])O (stereo not drawn)	10
Cc1ccccc1C(Cc1ccc(Cl)cc1Cl)Cn1ccnc1.O=[N+]([O-])O (stereo not drawn)	10

# lookup: Activity of COc1ccc(CC(Cn2ccnc2)c2ccc(Cl)cc2Cl)cc1.O=[N+]([O-])O (stereo not drawn)
10

Clc1ccc(C(CCc2ccccc2)Cn2ccnc2)c(Cl)c1.O=[N+]([O-])O (stereo not drawn) , same question.
10

Clc1ccc(C(Cc2ccccc2Cl)Cn2ccnc2)cc1.O=[N+]([O-])O (stereo not drawn) , same question.
100

Clc1ccc(C(Cc2ccccc2)Cn2ccnc2)c(Cl)c1.O=[N+]([O-])O (stereo not drawn) , same question.
10

Clc1ccc(CC(Cn2ccnc2)c2c(Cl)cccc2Cl)cc1.O=[N+]([O-])O (stereo not drawn) , same question.
100

Clc1ccc(C(Cc2ccc(Br)cc2)Cn2ccnc2)c(Cl)c1.O=[N+]([O-])O (stereo not drawn) , same question.
10

Clc1ccc(C(Cc2c(Cl)cccc2Cl)Cn2ccnc2)cc1.O=[N+]([O-])O (stereo not drawn) , same question.
10

COc1ccc(CCC(Cn2ccnc2)c2ccc(Cl)cc2Cl)cc1.O=[N+]([O-])O (stereo not drawn) , same question.
10

Clc1ccc(CC(Cn2ccnc2)c2ccc(Cl)cc2Cl)cc1.O=[N+]([O-])O (stereo not drawn) , same question.
10

Clc1ccc(CC(Cn2ccnc2)c2ccccc2Br)c(Cl)c1.O=[N+]([O-])O (stereo not drawn) , same question.
10

Cc1ccccc1C(Cc1c(Cl)cccc1Cl)Cn1ccnc1.O=[N+]([O-])O (stereo not drawn) , same question.
100

Clc1ccc(C(Cc2ccc(Cl)cc2Cl)Cn2ccnc2)cc1.O=[N+]([O-])O (stereo not drawn) , same question.
10

Clc1ccc(CC(Cn2ccnc2)c2ccccc2Br)cc1.O=[N+]([O-])O (stereo not drawn) , same question.
10

---

- Tested on: Aspergillus fumigatus
- test-name: Antifungal activity against Aspergillus fumigatus assessed as lowest dose level for total inhibition of fungal growth
- Format: functional
measure-name: Activity (µg/mL)
Give the number; µg/mL is assumed, so skip it.

compound	unit-tag	observed-result
Cc1ccccc1C(Cc1c(Cl)cccc1Cl)Cn1ccnc1.O=[N+]([O-])O (stereo not drawn)	µg/mL	100
Clc1ccc(CC(Cn2ccnc2)c2ccccc2Cl)cc1.O=[N+]([O-])O (stereo not drawn)	µg/mL	100
Cc1ccccc1C(Cc1ccc(Cl)cc1Cl)Cn1ccnc1.O=[N+]([O-])O (stereo not drawn)	µg/mL	10
Clc1ccc(CC(Cn2ccnc2)c2ccccc2Br)c(Cl)c1.O=[N+]([O-])O (stereo not drawn)	µg/mL	10
Clc1ccc(CCC(Cn2ccnc2)c2ccc(Cl)cc2Cl)cc1.O=[N+]([O-])O (stereo not drawn)	µg/mL	100
Clc1ccc(C(Cc2c(Cl)cccc2Cl)Cn2ccnc2)c(Cl)c1.O=[N+]([O-])O (stereo not drawn)	µg/mL	100

# lookup: Activity of Clc1ccc(CC(Cn2ccnc2)c2ccccc2Cl)c(Cl)c1.O=[N+]([O-])O (stereo not drawn)
100

Clc1ccc(C(Cc2ccccc2Cl)Cn2ccnc2)c(Cl)c1.O=[N+]([O-])O (stereo not drawn) , same question.
100

---

- Tested on: Saprolegnia
- test-name: Antifungal activity against Saprolegnia species assessed as lowest dose level for total inhibition of fungal growth
- Assay type: functional
measure-name: Activity (µg/mL)
Give the number; µg/mL is assumed, so skip it.

molecule	Activity [µg/mL]
Clc1ccc(CC(Cn2ccnc2)c2ccccc2Br)cc1.O=[N+]([O-])O (stereo not given)	100
Clc1ccc(COC(Cn2ccnc2)c2ccc(Cl)cc2Cl)c(Cl)c1 (stereo not given) [MICONAZOLE]	10
Clc1ccc(C(Cc2ccc(Cl)cc2Cl)Cn2ccnc2)cc1.O=[N+]([O-])O (stereo not given)	100
Clc1ccc(C(CCc2ccc(Br)cc2)Cn2ccnc2)c(Cl)c1.O=[N+]([O-])O (stereo not given)	10
Clc1ccc(C(Cc2c(Cl)cccc2Cl)Cn2ccnc2)cc1.O=[N+]([O-])O (stereo not given)	100
Clc1ccc(C(Cc2c(Cl)cccc2Cl)Cn2ccnc2)c(Cl)c1.O=[N+]([O-])O (stereo not given)	100

# lookup: Activity of Clc1ccc(CC(Cn2ccnc2)c2c(Cl)cccc2Cl)c(Cl)c1.O=[N+]([O-])O (stereo not given)
100

Clc1ccccc1CC(Cn1ccnc1)c1ccccc1Cl.O=[N+]([O-])O (stereo not given) , same question.
100

Clc1ccc(C(Cc2ccccc2)Cn2ccnc2)c(Cl)c1.O=[N+]([O-])O (stereo not given) , same question.
10

---

# maps each entry to its Activity
- Test system: Mucor
- test-name: Antifungal activity against Mucor species assessed as lowest dose level for total inhibition of fungal growth
- Type: functional
Give the number; µg/mL is assumed, so skip it.

Some solved entries appear below for comparison.
compound	measure-name	observed-result
Clc1ccc(CC(Cn2ccnc2)c2ccccc2Br)cc1.O=[N+]([O-])O (stereo not drawn)	Activity	100
Clc1ccc(C(Cc2ccccc2Cl)Cn2ccnc2)cc1.O=[N+]([O-])O (stereo not drawn)	Activity	10
COc1ccc(CC(Cn2ccnc2)c2ccc(Cl)cc2Cl)cc1.O=[N+]([O-])O (stereo not drawn)	Activity	10
Clc1ccc(CC(Cn2ccnc2)c2c(Cl)cccc2Cl)c(Cl)c1.O=[N+]([O-])O (stereo not drawn)	Activity	100
Clc1ccc(C(Cc2ccc(Br)cc2)Cn2ccnc2)c(Cl)c1.O=[N+]([O-])O (stereo not drawn)	Activity	10
Clc1ccccc1CC(Cn1ccnc1)c1ccccc1Cl.O=[N+]([O-])O (stereo not drawn)	Activity	100
Clc1ccc(C(Cc2c(Cl)cccc2Cl)Cn2ccnc2)c(Cl)c1.O=[N+]([O-])O (stereo not drawn)	Activity	100
Clc1ccc(C(Cc2c(Cl)cccc2Cl)Cn2ccnc2)cc1.O=[N+]([O-])O (stereo not drawn)	Activity	10

# lookup: Activity of Clc1ccc(CC(Cn2ccnc2)c2ccccc2Cl)c(Cl)c1.O=[N+]([O-])O (stereo not drawn)
100

Cc1ccccc1C(Cc1c(Cl)cccc1Cl)Cn1ccnc1.O=[N+]([O-])O (stereo not drawn) , same question.
100

---

- System: Phialophora verrucosa
- test-name: Antifungal activity against Phialophora verrucosa assessed as lowest dose level for total inhibition of fungal growth
- Assay type: functional
measure-name: Activity (µg/mL)
Give the number; µg/mL is assumed, so skip it.

Some solved entries appear below for comparison.
compound	unit-tag	Activity
Clc1ccc(C(Cc2ccccc2Cl)Cn2ccnc2)c(Cl)c1.O=[N+]([O-])O (stereo unspecified)	µg/mL	10
Clc1ccc(C(CCc2ccccc2)Cn2ccnc2)c(Cl)c1.O=[N+]([O-])O (stereo unspecified)	µg/mL	10
Clc1ccc(CC(Cn2ccnc2)c2ccccc2Br)cc1.O=[N+]([O-])O (stereo unspecified)	µg/mL	100
Clc1ccc(CC(Cn2ccnc2)c2ccc(Cl)cc2Cl)cc1.O=[N+]([O-])O (stereo unspecified)	µg/mL	100
Clc1ccccc1C(Cc1c(Cl)cccc1Cl)Cn1ccnc1.O=[N+]([O-])O (stereo unspecified)	µg/mL	100
Clc1ccc(CC(Cn2ccnc2)c2ccc(Cl)cc2Cl)c(Cl)c1.O=[N+]([O-])O (stereo unspecified)	µg/mL	100

# lookup: Activity of Clc1ccc(CC(Cn2ccnc2)c2ccccc2Br)c(Cl)c1.O=[N+]([O-])O (stereo unspecified)
100

---

# maps each entry to its Activity
- Test system: Sporothrix schenckii
- test-name: Antifungal activity against Sporothrix schenckii assessed as lowest dose level for total inhibition of fungal growth
- Assay type: functional
Give the number; µg/mL is assumed, so skip it.

Some solved entries appear below for comparison.
molecule	measure-name	unit-tag	observed-result
Clc1ccc(CCC(Cn2ccnc2)c2ccc(Cl)cc2Cl)c(Cl)c1.O=[N+]([O-])O (centres undefined)	Activity	µg/mL	10
Clc1ccc(COC(Cn2ccnc2)c2ccc(Cl)cc2Cl)c(Cl)c1 (centres undefined) [MICONAZOLE]	Activity	µg/mL	1
Clc1ccc(CC(Cn2ccnc2)c2ccccc2Cl)c(Cl)c1.O=[N+]([O-])O (centres undefined)	Activity	µg/mL	10

Turning now to a further record.
# lookup: Activity of Cc1ccccc1C(Cc1ccc(Cl)cc1)Cn1ccnc1.O=[N+]([O-])O (centres undefined)
100

---

# maps each entry to its Activity
- System: Mucor
- test-name: Antifungal activity against Mucor species assessed as lowest dose level for total inhibition of fungal growth
- Type: functional

Some solved entries appear below for comparison.
compound	observed-result
Clc1ccc(COC(Cn2ccnc2)c2ccc(Cl)cc2Cl)c(Cl)c1 (stereo not drawn)	>100 µg/mL
Clc1ccc(CC(Cn2ccnc2)c2c(Cl)cccc2Cl)cc1.O=[N+]([O-])O (stereo not drawn)	>100 µg/mL
Clc1ccc(C(CCc2ccc(Br)cc2)Cn2ccnc2)c(Cl)c1.O=[N+]([O-])O (stereo not drawn)	>100 µg/mL
Clc1ccc(CCC(Cn2ccnc2)c2ccc(Cl)cc2Cl)c(Cl)c1.O=[N+]([O-])O (stereo not drawn)	>100 µg/mL

# lookup: Activity of Clc1ccc(C(Cc2ccccc2)Cn2ccnc2)c(Cl)c1.O=[N+]([O-])O (stereo not drawn)
100 µg/mL
